Test: qHTS assay to identify small molecule antagonists of the estrogen related receptor signaling pathway with the pleiotropic PPARgamma coactivator (PGC) from Tox21 10K library - cell viability counter screen (AID 1224840); also: nearly all actives have a fitted effect of over 40% in size
Conditions: PGC/ERR reporter cells viability, CellTiter-Fluor, 17.5 h; series mostly up to 92.4 µM
Method: National Center for Advancing Translational Sciences [NCATS] NIH Chemical Genomics Center [NCGC] U.S. Environmental Protection Agency [EPA] National Institutes of Environmental Health Sciences [NIEHS] National Toxicology Program [NTP] […] The PGC/ERR cells were dispensed at 2,000 cells/5 ul/well in 1536-well white plates using a Multidrop dispenser. […] After 30-minute incubation at 37 C/5% CO2, the fluorescence intensity in the plates was measured using a ViewLux plate reader.
Results filed as inconclusive are left out. Calls of active or inactive are those of the source. Calls follow the shape of the dose curve; as a rule, active = well fitted cell-killing curve with a large enough effect in the repeat runs (not every such curve was filed as active); inconclusive = weak or mixed curves, or effect the other way; inactive = no such curve, though single readings can be large or run the other way.
Pick one: true (1) for active, false (0) for inactive

**Query** How was NC(=O)c1ccccc1O classified in this test?
**Result** false (0)

**Query** Give the logged outcome of this assay for the following molecule: CC(O)C(=O)O (configuration not stated)
**Result** false (0)

**Query** Please state the recorded outcome for this molecule: NC(N)=O
**Result** false (0)

**Query** Name the outcome recorded for O=C(c1ccccc1)C(O)c1ccccc1 (configuration not stated) in the assay.
**Result** false (0)

**Query** Returns: the outcome recorded for O=C(O)CCC(=O)O in this assay.
**Result** false (0)

**Query** What did the test return for Nc1ccn([C@H]2CC[C@@H](CO)O2)c(=O)n1 ?
**Result** false (0)

**Query** Would you mind telling me which call this test gave CCCN(CCC)S(=O)(=O)c1ccc(C(=O)O)cc1 ?
**Result** false (0)

**Query** Returns: the outcome recorded for O=c1cc[nH]c(=S)[nH]1 in this assay.
**Result** false (0)

**Query** I'd appreciate the recorded outcome for NNC(=O)c1ccncc1 from this test.
**Result** false (0)

**Query** # fetch the recorded call for Oc1ccc(/C=C/c2cc(O)cc(O)c2)cc1 here
**Result** false (0)

**Query** Field: outcome | Entry: Cn1c(=O)c2[nH]cnc2n(C)c1=O
**Result** false (0)

**Query** Hi, do you know how Cc1ccc(S(=O)(=O)NC(=O)NN2CCCCCC2)cc1 came out in this test?
**Result** false (0)

**Query** For Cc1ccc(C)c(OCCCC(C)(C)C(=O)O)c1 , which call appears in the assay record?
**Result** false (0)

**Query** Short answer needed: outcome of this test for COc1c2occc2cc2ccc(=O)oc12 ?
**Result** false (0)

**Query** Write down the call the test reported for this molecule. Item: O=C1CN(/N=C/c2ccc([N+](=O)[O-])o2)C(=O)N1
**Result** true (1)

**Query** Query: recorded result category for CCOc1ccc(NC(=O)CC(C)O)cc1 (configuration not stated) in this test
**Result** false (0)

**Query** Test call, this molecule: CC(C)[C@@H]1CC[C@@H](C)C[C@H]1O
**Result** false (0)

**Query** What classification did CC(=O)Nc1nnc(S(N)(=O)=O)s1 end up with in this test?
**Result** false (0)

**Query** Kindly provide the recorded test outcome for the following molecule: Nc1ccc(C(=O)O)cc1
**Result** false (0)

**Query** Hi, sorry to bother you, what did the test record for CCCCC(CC)COC(=O)/C=C/c1ccc(OC)cc1 (configuration not stated) ?
**Result** false (0)

**Query** Any idea what this test logged for C1N2CN3CN1CN(C2)C3 ?
**Result** false (0)

**Query** Recorded call for NC(N)=NC(=O)c1nc(Cl)c(N)nc1N ?
**Result** false (0)

**Query** Fill in: this test's call for Cc1ccc(O)cc1 is ___
**Result** false (0)

**Query** Which outcome was assigned to C/C=C/c1ccc(OC)cc1 in this test?
**Result** false (0)

**Query** How was CC(O)CN(CCN(CC(C)O)CC(C)O)CC(C)O (configuration not stated) classified in this test?
**Result** false (0)

**Query** Recorded test outcome, item CCC1(c2ccccc2)C(=O)NCNC1=O
**Result** false (0)

**Query** Tell me the assay call for O=C(O)CS please.
**Result** false (0)

**Query** How did this test come out for O=S(=O)(O)c1ccc2cc(O)ccc2c1 ?
**Result** false (0)

**Query** Hey, what did the test say about O=c1ccc2ccccc2o1 ?
**Result** false (0)

**Query** Hello, I am checking results. What call was entered for Nc1ccc(S(=O)(=O)Nc2nccs2)cc1 ?
**Result** false (0)

**Query** Dear all, I need the recorded test outcome for O=NO , thank you.
**Result** false (0)

**Query** Fill in: this test's call for O=C(O)c1cccnc1 is ___
**Result** false (0)
